The measurements presented in this section are drawn from PubChem BioAssay (EPA / NIEHS).

# Read-out: Early growth response protein 1 (EGR1) transcription factor, EGR1 (gene 1958)
# experimental details: LTEA_HepaRG_EGR1: Life Technologies and Expression Analysis (LTEA) Assay for Early growth response protein 1 (EGR1) transcription factor using HepaRG (AID 2283490)
# experimental setup: mRNA level, 48 h; actives raise or lower the signal
Calls of active or inactive are those of the source. The calls were made as follows: active = hit-call score of the fitted dose curve at least 0.9, where 1 is the maximum; inactive = score below 0.9.
Choose the fitting class; nothing outside active, inactive is accepted.

Use the examples below as a reference point.
>>> class_label("Cc1cc(Cc2ccc(N)c(C)c2)ccc1N")
"inactive"
>>> class_label("COc1ccc(C(=O)Nc2nc3ccccc3c(NCc3ccccc3)c2C#N)cc1")
"active"
>>> class_label("CN(C)CCCN(C)CCCN(C)C")
"inactive"

Please find the next compound below.
(Q) Hello, I am checking results. What call was entered for `CC(=O)[C@@]1(O)CC[C@H]2[C@@H]3CCC4=CC(=O)CC[C@]4(C)[C@H]3CC[C@@]21C` ?
(A) inactive
